# Tested on: VchCAST RNA-guided transposition machinery (E. coli BL21(DE3) host, lacZ target)
# EXPERIMENT: relative integration efficiency (T-RL orientation) vs wild-type transposon end (log2 (normalized fold change)); transposon end mutated: right end (5 bp flank + 75 bp right end); higher = more efficient transposition
Is relative integration efficiency (log2) at least -3? Then rule met. If not, rule not met.

MONOMER SEQUENCE | TARGET OR TEST SYSTEM | LABEL
ACATTTGTTGATACATCCATAAAATGATAATTACAGCCATAAATTGATAATTATCACAGCCATAAATTGATATTGCCTCTGATCATAGTCAGACCAACATTGCTACGACCCGTATTCGCACCGACAC | VchCAST RNA-guided transposition machinery (E. coli BL21(DE3) host, lacZ target) | rule met
ACATTTGTTGATACAACCATAAAATGATAATTAATAATTCACCCATAAATTGATAATTATCACACCCATAAATTGATATTGCCTCTGATCATAGTCAGACCAACATTGCTACGACCCGTATTCGCAC | VchCAST RNA-guided transposition machinery (E. coli BL21(DE3) host, lacZ target) | rule met
ACATTTGTTGATACACCCATAAAATGATAATTACAACCATAAATTGATAATTATCACAACCATAAATTGATATTGCCTCTGATCATAGTCAGACCAACATTGCTACGACCCGTATTCGCACCGACAC | VchCAST RNA-guided transposition machinery (E. coli BL21(DE3) host, lacZ target) | rule met
ACATTTGTTGATACAACCATAAAATGATAATTACACCCATAAATTGATAATTATCACACCCATAAATTGATATTGCCTCTGATCATAGCAACCATAAAATGATAATTATCAGACCAAGCACCGACAC | VchCAST RNA-guided transposition machinery (E. coli BL21(DE3) host, lacZ target) | rule met
ACATTTGTTGATACAACCATAAAATGATAATTAACACCCATAAATTGATAATTATCAACAAACGCCCGGTCGCGGTACTCTGATCATAGTCAGACCAACATTGCTACGACCCGTATTCGCACCGACA | VchCAST RNA-guided transposition machinery (E. coli BL21(DE3) host, lacZ target) | rule met
ACATTTGTGGATACAACCATAAAATGATAATTACACCCATAAATTTATAATTATCACACCCAATTTAACTATAACGCTCTGATCATAGTCAGACCAACATTGCTACGACCCGTATTCGCACCGACAC | VchCAST RNA-guided transposition machinery (E. coli BL21(DE3) host, lacZ target) | rule met
ACATTTGCTGATACTACCATATAATGATAATAACACCCCTAAAATGATAATTATCACACCCAATTTAACTATAACGCTCTGATCATAGTCAGACCAACATTGCTACGACCCGTATTCGCACCGACAC | VchCAST RNA-guided transposition machinery (E. coli BL21(DE3) host, lacZ target) | rule not met
ACATTTGTTCATACAACCCTAAAATGATAATTACACCCATAAATTCATAATTATCACACCCAATTTAACTATAACGCTCTGATCATAGTCAGACCAACATTGCTACGACCCGTATTCGCACCGACAC | VchCAST RNA-guided transposition machinery (E. coli BL21(DE3) host, lacZ target) | rule not met
ACATTTGTTGATACAACAATAAAATGATAATTACACCAATAAATTGATAATTATCACACCAATAAATTGATATTGCCTCTGATCATAGTCAGACCAACATTGCTACGACCCGTATTCGCACCGACAC | VchCAST RNA-guided transposition machinery (E. coli BL21(DE3) host, lacZ target) | rule met
ACATTTGTTGATAAAACCATACGTTGATTTTACCACCCATAAATTGATAATTATCACACCCATAAATTGATATTGCCTCTGATCATAGTCAGACCAACATTGCTACGACCCGTATTCGCACCGACAC | VchCAST RNA-guided transposition machinery (E. coli BL21(DE3) host, lacZ target) | rule met

---

# Tested on: VchCAST RNA-guided transposition machinery (E. coli BL21(DE3) host, lacZ target)
# EXPERIMENT: relative integration efficiency (T-RL orientation) vs wild-type transposon end (log2 (normalized fold change)); transposon end mutated: right end (5 bp flank + 75 bp right end); higher = more efficient transposition
Is relative integration efficiency (log2) at least -0.7? Then condition met. If not, condition not met.

MONOMER SEQUENCE | LABEL
ACATTTGTTGATACAACCATAAAATGATAATTACACCCAATTTTTGATAATTATCACACCCATAAATTGATATTGCCTCTGATCATAGTCAGACCAACATTGCTACGACCCGTATTCGCACCGACAC | condition met
ACATTTGTTGATACAACCATAAAACGATAATTACACCCATAAATTGATCATTATCACACCCAATTTAACTATAACGCTCTGATCATAGTCAGACCAACATTGCTACGACCCGTATTCGCACCGACAC | condition not met
ACATTTGTTGATACAACCATAAAATGATAATTACACCCATAAATTGATAATTATCACAAAACTAAATTGATATTGCCTCTGATCATAGTCAGACCAACATTGCTACGACCCGTATTCGCACCGACAC | condition met
ACATTTGTTGATACAACCATAAAATGATAATTACACGGTAAAATTGATAATTATCACACCCATAAATTGATATTGCCTCTGATCATAGTCAGACCAACATTGCTACGACCCGTATTCGCACCGACAC | condition not met

---

# System: VchCAST RNA-guided transposition machinery (E. coli BL21(DE3) host, lacZ target)
# EXPERIMENT: relative integration efficiency (T-RL orientation) vs wild-type transposon end (log2 (normalized fold change)); transposon end mutated: right end (5 bp flank + 75 bp right end); higher = more efficient transposition

MONOMER SEQUENCE | relative integration efficiency (log2)
ACATTTGTTGATACAACCATAAAGTGATATTTACAACCATATATTGATATCTCTCACAACCATAAAGTGATATTTACTCTGATCATAGTCAGACCAACATTGCTACGACCCGTATTCGCACCGACAC | -0.357
ACATTTGTTGATACAACCATAAAAGGATAATTACCCCCATAAATTGATAATTATCACACCCCATTTAACTATAACGCTCTGATCATAGTCAGACCAACATTGCTACGACCCGTATTCGCACCGACAC | -1.46
ACATTTGTTGATACAACCATAAAATGATAATTATAATTATCATTTTATGGTTGTCACAACCATAAAATGATAATTACTCTGATCATAGTCAGACCAACATTGCTACGACCCGTATTCGCACCGACAC | -3.2

---

relative integration efficiency (log2) overview
# System: VchCAST RNA-guided transposition machinery (E. coli BL21(DE3) host, lacZ target)
# EXPERIMENT: relative integration efficiency (T-LR orientation) vs wild-type transposon end (log2 (normalized fold change)); transposon end mutated: right end (5 bp flank + 75 bp right end); higher = more efficient transposition
OBSERVATION TYPE: relative integration efficiency (log2)

MONOMER SEQUENCE | OBSERVATION TYPE | REPORTED VALUE
ACATTTGTTGATACAACCATAAAAAGATAATTACACCCATAAATTGATAATGATGACACCGAATTTAACTATAACGCTCTGATCATAGTCAGACCAACATTGCTACGACCCGTATTCGCACCGACAC | relative integration efficiency (log2) | 2.23
ACATTTGTTGATACAACCATAAAATGATAATTAATAATTATTTATAATCAGCAACTTAACCACAAAACACCCATAAATTGATAATTAACAACACCCATAAATTGATATTGCCTCTGATCATAGTCAG | relative integration efficiency (log2) | -1.12
ACATTTGTTGATACAACCATAAAATGATAATATCACCCATAAATTGATAATTATCACACCCATAAATTGATATTGCCTCTGATCATAGTCAGACCAACATTGCTACGACCCGTATTCGCACCGACAC | relative integration efficiency (log2) | -0.505
ACATTTGTTGATACATGGTTAAAATGATAATTACACCCATAAATTGATAATTATCACACCCATAAATTGATATTGCCTCTGATCATAGTCAGACCAACATTGCTACGACCCGTATTCGCACCGACAC | relative integration efficiency (log2) | -2.05
ACATTTGTTGATACAACCATAAAATGATAATGCACAAACGCCCGGTCGCCGGCGACACAAACGCCCGGTCGCGGTAAGAGGATCATAGTCAGACCAACATTGCTACGACCCGTATTCGCACCGACAC | relative integration efficiency (log2) | 1.04

These measurements were taken from the supplement of paper PMC10201428.
